Reported protein stability index values for a set of variants
B1: WSB1 (parent)
chain: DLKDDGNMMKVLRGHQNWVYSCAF

- Variants of: B1
- assay summary: protein stability index of a GFP-peptide fusion (GPS, HEK-293T) (PSI 1-6); higher = more stable;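 also: lentivirally expressed fusions sorted by FACS into six bins by GFP to DsRed ratio, PSI derived from sequencing read proportions per bin multiplied by bin number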
- particulars: c terminus: a fixed tail appended
Answer using only a numeral; do not append any unit.

Input: Item under review: DLKDDGNMMKVLRGHQNWVYSKAF [C22K] . Reported protein stability index?
Output: 1.77

Input: Try this variant next: DLKHDGNMMKVLRGHQNWVYSCAF [D4H]
Output: 1.66

Input: How about this variant: DLKDDGNMMKVLRGHQNWVYSPAF [C22P]
Output: 2.01

Input: Next variant: DLKDDGNMDKVLRGHQNWVYSCAF [M9D]
Output: 1.88

Input: Also DLKDDPNMMKVLRGHQNWVYSCAF [G6P] , if possible.
Output: 2.28

Input: Same question for DLKDDGNMMKVLRGHQEWVYSCAF [N17E] please.
Output: 1.68

Input: Same read-out for DLWDDGNMMKVLRGHQNWVYSCAF [K3W] ?
Output: 2.49

Input: Follow-up item: DLKDDGNMMKVLRGHQNWVYSDAF [C22D]
Output: 3.46

Input: Similarly, DLKDDGNMMKVLRGHQNWVYSCLF [A23L] ?
Output: 1.22

Input: Further, for DGKDDGNMMKVLRGHQNWVYSCAF [L2G] ?
Output: 1.91

Input: Would you kindly repeat that for DLKDDGNMKKVLRGHQNWVYSCAF [M9K] ?
Output: 1.95

Input: // repeat for DLKDDGNMMKVLHGHQNWVYSCAF [R13H] and report
Output: 1.46

Input: Lookup DLKDDGNMMKVLRGHQNWVFSCAF [Y20F]
Output: 1.66
